# credit: the nanobody polyreactivity screen of Harvey et al. (2022)

- run-description: yeast display, Sf9 membrane polyspecificity reagent, FACS + sequencing; frameworks hold sequencing errors
outcome-measure: polyreactivity (PSR sort gate)

Please review the following examples before continuing.
[[record]]
residue_sequence = "QVQLVESGGGLVQAGGSLRLSCAASGSTFSGYAMGWSRQAPGKERELVASITSSGGSTYYADSVKGRFTISRDNAKNTVYLQMNSLKPEDTAVYYCAAAKSAMWGQGTQVTVSS"
result_value = "low polyreactivity"

[[record]]
residue_sequence = "QVQLVESGGGLVQAGGSLRLSCAASGSTIRFNAMGWYRQAPRKERELVAAISWRGGTTYADSVKGRFTISRDNAKNTVFLQMTSLKPEDTAVYYCAAGLYAQGKRYGYWGHGTQVTVSS"
result_value = "high polyreactivity"

[[record]]
residue_sequence = "QVQLVESGGGLVQAGGSLRLSCAASGRIFGPYTMGWYRQAPGKERELVATISYSGSTTYYADSVKGRFTISRDNAKNTVYLQMNSLKPEDTAVYYCNAQYYVFITFDYWGQGTQVTVSS"
result_value = "high polyreactivity"

[[record]]
residue_sequence = "QVQLVESGRGLVQAGGSLRLSCAASGRTFDFNAMGWYRQAPGKERELVAAISSDSDTYYADSVKGRFTISRDNAKNTVFLQMNSLKPEDTAVYYCAAEHQYPYGWYYYWGQGTQVTVSS"
result_value = "high polyreactivity"


Check the records and state polyreactivity (PSR sort gate) for `QVQLQESSGGLVQAGGSLRMSCAASGTIFNFHIMGWYRQAPGKEREFVAAISYGTSTYYADSVKGRFTISRDNAKNTVYLQMNSQKPEDTAVYYCAVFDYLEVYCWYWGQGTQVTVSS`
low polyreactivity

Check the records and state polyreactivity (PSR sort gate) for `QVQLVQSRGGLVQAGGSLRLSCAASGRTFVYNAMGWYRPAPGKERELVAAIDGGGDRTYYADSVKGRFTISRDNAKNTVYLQMNSLKPEDTAVYYCARDPGDTYYYSYPEGDYWGLGTQVTVSS`
low polyreactivity
